Condition Set: in methanol, 308.15 K
Recorded Endpoint: solubility (mole fraction)
Reply briefly: the number, and no unit.

Ask: State, in one line, measured solubility (mole fraction) of COc1cc2nc(Cl)nc(N)c2cc1OC
Reply: 0.000458

---

Condition Set: in isobutanol, 273.15 K
Recorded Endpoint: solubility (mole fraction)
Please state the value as a number alone, without comment.

Ask: Output solubility (mole fraction) of COc1cc2nc(Cl)nc(N)c2cc1OC
Reply: 0.000232

---

Condition Set: in isopropanol, 283.15 K
Recorded Endpoint: solubility (mole fraction)

Ask: Note down solubility (mole fraction) recorded for COc1cc2nc(Cl)nc(N)c2cc1OC
Reply: 0.000209
